Data provenance is patent US20240158370A1.

target: CK1α (Homo sapiens, UniProt P48729+Q96SW2); construct: CSNK1A1-HiBit KI HEK293(LgBit) Cells; host or cells: HEK293(LgBit) knock-in cells; experiment: HiBiT degradation assay, CK1α, Procedure A; format: cell-based; settings: six hours
Sequence (P48729 whole entry): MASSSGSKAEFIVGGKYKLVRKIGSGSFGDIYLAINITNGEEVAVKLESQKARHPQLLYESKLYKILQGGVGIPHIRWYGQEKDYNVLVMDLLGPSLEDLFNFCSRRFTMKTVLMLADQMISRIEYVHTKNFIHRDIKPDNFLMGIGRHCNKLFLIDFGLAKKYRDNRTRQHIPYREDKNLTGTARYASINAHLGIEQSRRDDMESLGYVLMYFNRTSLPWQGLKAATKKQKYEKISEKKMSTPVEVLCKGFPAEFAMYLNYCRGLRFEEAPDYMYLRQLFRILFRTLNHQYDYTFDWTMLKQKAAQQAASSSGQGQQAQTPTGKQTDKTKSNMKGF
Sequence (Q96SW2 whole entry): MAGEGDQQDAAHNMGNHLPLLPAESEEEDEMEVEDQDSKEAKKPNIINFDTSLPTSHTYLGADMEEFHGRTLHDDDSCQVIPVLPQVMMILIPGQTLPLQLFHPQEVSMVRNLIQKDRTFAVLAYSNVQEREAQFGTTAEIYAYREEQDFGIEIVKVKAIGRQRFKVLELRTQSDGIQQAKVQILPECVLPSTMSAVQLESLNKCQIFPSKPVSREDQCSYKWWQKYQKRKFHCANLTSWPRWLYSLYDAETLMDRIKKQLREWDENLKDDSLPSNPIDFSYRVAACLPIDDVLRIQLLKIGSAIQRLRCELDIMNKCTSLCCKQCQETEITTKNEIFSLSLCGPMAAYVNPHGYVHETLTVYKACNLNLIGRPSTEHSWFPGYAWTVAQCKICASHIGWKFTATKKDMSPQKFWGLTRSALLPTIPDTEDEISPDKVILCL
Sequence (Q16531 whole entry partner): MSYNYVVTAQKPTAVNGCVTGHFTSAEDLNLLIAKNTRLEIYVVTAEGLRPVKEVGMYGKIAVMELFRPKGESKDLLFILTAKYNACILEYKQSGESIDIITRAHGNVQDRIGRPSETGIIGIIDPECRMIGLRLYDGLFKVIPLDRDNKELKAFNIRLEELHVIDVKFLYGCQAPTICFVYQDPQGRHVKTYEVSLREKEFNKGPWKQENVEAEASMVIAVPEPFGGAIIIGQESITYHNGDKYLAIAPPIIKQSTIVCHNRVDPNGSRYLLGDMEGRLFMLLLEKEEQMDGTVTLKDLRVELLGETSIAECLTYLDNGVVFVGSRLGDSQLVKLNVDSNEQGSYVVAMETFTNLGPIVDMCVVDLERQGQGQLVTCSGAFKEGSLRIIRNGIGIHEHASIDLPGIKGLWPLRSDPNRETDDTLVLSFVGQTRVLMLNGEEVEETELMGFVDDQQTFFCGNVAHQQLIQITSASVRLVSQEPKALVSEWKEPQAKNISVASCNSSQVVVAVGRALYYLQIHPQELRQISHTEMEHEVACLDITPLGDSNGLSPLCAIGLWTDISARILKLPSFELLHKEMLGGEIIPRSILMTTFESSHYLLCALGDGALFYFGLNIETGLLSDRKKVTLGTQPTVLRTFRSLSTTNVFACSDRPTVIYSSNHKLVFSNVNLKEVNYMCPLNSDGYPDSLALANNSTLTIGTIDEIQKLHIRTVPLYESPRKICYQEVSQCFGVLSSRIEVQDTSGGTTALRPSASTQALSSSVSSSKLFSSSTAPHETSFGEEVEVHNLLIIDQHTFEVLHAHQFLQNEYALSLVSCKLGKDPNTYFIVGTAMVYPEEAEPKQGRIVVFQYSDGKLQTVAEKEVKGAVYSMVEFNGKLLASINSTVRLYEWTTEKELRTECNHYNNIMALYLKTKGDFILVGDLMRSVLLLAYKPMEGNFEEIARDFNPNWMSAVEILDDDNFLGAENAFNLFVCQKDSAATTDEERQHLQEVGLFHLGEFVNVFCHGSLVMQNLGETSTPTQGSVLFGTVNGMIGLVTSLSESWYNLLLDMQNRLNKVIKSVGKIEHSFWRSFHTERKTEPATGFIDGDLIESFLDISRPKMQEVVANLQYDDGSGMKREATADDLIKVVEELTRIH
quantityKind: CK1α Ymin

Cn1cc(-c2ccc3c(c2)CN(C2CCC(=O)NC2=O)C3=O)nc1-c1ccccc1O (centres unmarked) [Example 624] : C (C = 0-10% remaining)
Cn1cc(-c2ccc3c(c2)CN(C2CCC(=O)NC2=O)C3=O)nc1-c1cccs1 (centres unmarked) [Example 646] : C (C = 0-10% remaining)
Cn1cc(-c2ccc3c(c2)CN(C2CCC(=O)NC2=O)C3=O)nc1-c1cc(F)cc(Cl)c1 (centres unmarked) [Example 586] : C (C = 0-10% remaining)
